Answer each item with its documented EC50.
System: Jump-In T-REx CHO-K1 BLA cells
assay_details: cells
Format: cell-based
cond: 0% FBS 4Hr; read-out: TETCHO: Counterscreen EC50
Method: This assay was based on Jump-In™ T-REx™ CHO-K1 BLA cells containing a stably integrated β-lactamase under the control of an inducible cytomegalovirus (CMV) promoter. […] The final working concentration of DMSO was 0.5%. β-lactamase activity was detected using the ToxBLAzer Dual Screen (Invitrogen), as per the manufacturer’s instructions. Measurements were carried out using the Envision multiplate reader (Perkin–Elmer). […]
Positions of bridges follow the written chain, without caps; N, C: chain ends. Non-standard residues stand in square brackets, D forms with d. Residues, ends and D or L forms follow the SMILES beside them. R5 = C=CCCC[C@@](C)(N)C(=O)O

molecule: CC(=O)N[C@@H](CCCCN=[N+]=[N-])C(=O)NCCC(=O)N[C@@H](CC(C)C)C(=O)N[C@H](C(=O)N[C@@H](Cc1ccccc1)C(=O)N[C@]1(C)CCCCCCn2cc(nn2)CCC[C@@](C)(C(=O)N[C@@H](CO)C(=O)N[C@@H](C)C(=O)N[C@@H](C)C(N)=O)NC(=O)[C@H](CC2CCC2)NC(=O)[C@H](CCC(N)=O)NC(=O)[C@H](C)NC(=O)[C@H](Cc2c[nH]c3ccccc23)NC(=O)[C@H](Cc2ccc(O)cc2)NC(=O)[C@H](CCC(=O)O)NC1=O)[C@@H](C)O [MP-707]
EC50: > 50.4 µM

molecule: CC(=O)N[C@H](C(=O)N[C@@H](CO)C(=O)N[C@@H](Cc1ccccc1)C(=O)N[C@]1(C)CCCC=CCCC[C@](C)(C(=O)N[C@@H](CC(C)C)C(=O)N[C@@H](CC(C)C)C(=O)N2CCC[C@H]2C(=O)N[C@@H](CCC(N)=O)C(=O)N[C@@H](CC(N)=O)C(=O)N[C@@H](Cc2ccccc2)C(N)=O)NC(=O)[C@H](Cc2c[nH]c3ccccc23)NC(=O)[C@H](Cc2ccc(O)cc2)NC(=O)[C@H](CCC(=O)O)NC1=O)[C@@H](C)O [MP-1173] (Ac-TSF[R5]EYW[R5]LLPQNF-NH2; staple 4-8)
EC50: 28.3 µM

molecule: CC(=O)N[C@H](C(=O)N[C@@H](CO)C(=O)N[C@@H](Cc1ccccc1)C(=O)N[C@]1(C)CCCCCCC=CCCC[C@@](C)(C(=O)O)NC(=O)[C@H](CC(C)C)NC(=O)[C@H](CC(C)C)NC(=O)[C@H](C)NC(=O)[C@H](Cc2c[nH]c3ccccc23)NC(=O)[C@H](Cc2ccc(O)cc2)NC(=O)[C@H](CCC(=O)O)NC1=O)[C@@H](C)O [MP-162]
EC50: 46.9 µM

// for each molecule below, give its EC50
1. CC(=O)N[C@@H](CCCCN)C(=O)NCCCCCC(=O)N[C@H](C(=O)N[C@@H](CO)C(=O)N[C@@H](Cc1ccccc1)C(=O)N[C@]1(C)CCCCCCC=CCCC[C@@](C)(C(N)=O)NC(=O)[C@H](CC(C)C)NC(=O)[C@H](CC(C)C)NC(=O)[C@H](C)NC(=O)[C@H](Cc2c[nH]c3ccccc23)NC(=O)[C@H](Cc2ccc(O)cc2)NC(=O)[C@H](CCC(=O)O)NC1=O)[C@@H](C)O [MP-716]
2. CC(=O)N[C@H](C(=O)N[C@@H](CO)C(=O)N[C@@H](Cc1ccccc1)C(=O)NC(C)(C)C(=O)N[C@@H](CCC(=O)O)C(=O)N[C@@H](Cc1ccc(O)cc1)C(=O)N[C@@H](Cc1c[nH]c2ccccc12)C(=O)N[C@@H](C)C(=O)N[C@@H](CC(C)C)C(=O)N[C@@H](CC(C)C)C(=O)NC(C)(C)C(N)=O)[C@@H](C)O [MP-153]

Output line:
1. > 50.4 µM
2. > 50 µM
